Hello, the source for this data is paper PMC6079302, in case you need it.

# target_or_test_system: CepI E40Q mutant (Burkholderia cenocepacia, UniProt B4EMD2, E40Q)
# assay_explanation: CepI activity assay (DCPIP), IC50 determination, E40Q mutant
parameter_measured: IC50

Need IC50, item O=C1C=CC(=O)C(C2NC(=O)[C@H](Cc3ccccc3)NC2=O)=C1 (stereo partly shown) [8b] 53 µM

* * *

# target_or_test_system: CepI Q46R mutant (Burkholderia cenocepacia, UniProt B4EMD2, Q46R)
# Sequence (B4EMD2 1-202 Q46R): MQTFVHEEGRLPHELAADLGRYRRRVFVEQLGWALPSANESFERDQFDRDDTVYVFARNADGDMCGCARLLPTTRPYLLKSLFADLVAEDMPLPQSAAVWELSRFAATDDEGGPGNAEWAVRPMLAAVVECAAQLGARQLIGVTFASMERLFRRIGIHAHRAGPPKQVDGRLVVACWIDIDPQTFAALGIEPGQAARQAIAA
# assay_explanation: CepI activity assay (DCPIP), IC50 determination, Q46R mutant
parameter_measured: IC50

// query IC50 value for entry O=C1C=CC(=O)C(C2NC(=O)[C@H](Cc3ccccc3)NC2=O)=C1 (stereo partly shown) 19.2 µM

* * *

# target_or_test_system: CepI S41A mutant (Burkholderia cenocepacia, UniProt B4EMD2, S41A)
# assay_explanation: CepI activity assay (DCPIP), IC50 determination, S41A mutant
parameter_measured: IC50 (µM)
Answer with a number only, understood to be in µM.

What value of IC50 has been reported for the following molecule? O=C1C=CC(=O)C(C2NC(=O)[C@H](Cc3ccccc3)NC2=O)=C1 (stereo partly shown) 113
